Target Or Test System: T1, TSHR260-alkaline phosphatase (TSHR260-AP) (human, UniProt P05187 23-511)
T1 construct: Fusion of human TSHR amino acids 22-260 (construct codes 1-260, 1-21 being the leader) with secreted alkaline phosphatase, expressed in insect cells; In the ELISA the antibody bridges full length detergent-solubilised TSHR coated on the wells and TSHR260-AP in the liquid phase
Assay Procedure: TSHR260-AP bridge ELISA, full length TSHR on wells; 0.005 µg/mL, diluted in HBD
Overview of reported Mean absorbance at 405 nm across a group of binders:
Report only the number, with the unit absorbance at 405 nm understood.

Query Mean absorbance at 405 nm for K1-18 Fab (Fab, V domains shown, residue limits as in claim 65) VH: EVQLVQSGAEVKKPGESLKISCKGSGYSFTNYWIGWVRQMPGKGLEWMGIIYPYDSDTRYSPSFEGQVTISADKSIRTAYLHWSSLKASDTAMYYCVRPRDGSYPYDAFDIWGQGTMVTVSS VL: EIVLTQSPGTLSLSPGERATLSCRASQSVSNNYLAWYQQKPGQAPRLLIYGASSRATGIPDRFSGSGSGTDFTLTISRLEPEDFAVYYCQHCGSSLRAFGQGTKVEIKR
-0.011

Query Mean absorbance at 405 nm for K1-70 Fab (Fab, V domains shown, residue limits as in claims 56 and 57) VH: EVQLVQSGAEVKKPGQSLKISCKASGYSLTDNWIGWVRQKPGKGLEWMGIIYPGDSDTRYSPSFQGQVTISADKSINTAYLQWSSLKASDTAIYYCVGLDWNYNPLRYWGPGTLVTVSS VL: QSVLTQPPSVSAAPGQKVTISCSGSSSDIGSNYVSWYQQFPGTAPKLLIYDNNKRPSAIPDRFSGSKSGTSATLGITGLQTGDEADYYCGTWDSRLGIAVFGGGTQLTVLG
-0.01

Query Mean absorbance at 405 nm for K1-70 IgG (antibody, V domains shown, Human IgG1 lambda purified from hetero-hybridoma supernatant) VH: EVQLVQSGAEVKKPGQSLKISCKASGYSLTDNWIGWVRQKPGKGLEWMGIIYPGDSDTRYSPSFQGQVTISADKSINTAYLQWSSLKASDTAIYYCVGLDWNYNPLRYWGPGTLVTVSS VL: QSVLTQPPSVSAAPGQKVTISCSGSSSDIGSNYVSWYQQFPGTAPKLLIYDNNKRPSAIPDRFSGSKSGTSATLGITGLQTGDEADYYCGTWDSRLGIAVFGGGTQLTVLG
0.045

Query Mean absorbance at 405 nm for K1-18 IgG (antibody, V domains shown, Human IgG1 kappa purified from hetero-hybridoma supernatant) VH: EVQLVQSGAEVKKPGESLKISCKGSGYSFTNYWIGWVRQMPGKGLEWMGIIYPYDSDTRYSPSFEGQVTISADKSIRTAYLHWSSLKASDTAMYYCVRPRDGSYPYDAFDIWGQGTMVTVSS VL: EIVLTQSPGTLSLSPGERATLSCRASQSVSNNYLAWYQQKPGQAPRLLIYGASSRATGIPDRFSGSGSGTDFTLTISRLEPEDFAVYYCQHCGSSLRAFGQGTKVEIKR
0.013
